test: binders of probe aFSTL3 on microarray, primary screen, stem cell growth factor project, biochemical, small-molecule microarray, fluorescence 635/667 (AID 1064); settings: higher = more signal;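 note: measures binding of the biotinylated anti-FSTL3 antibody to printed compounds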
readout_type: composite z-score

[[record]]
compound = "O=C1OCCC=C[C@H]2OC34C=CCN(CCN5CCOCC5)C(=O)[C@H]3N(CCCCCCO)C(=O)[C@@H]4C12 (some centres undefined)"
readout_type = "composite z-score"
endpoint_value = -0.174

[[record]]
compound = "O=C1NC(=O)C2C1C=CC(C(O)c1cccc3ccccc13)N2Nc1ccccn1 (centres undefined)"
readout_type = "composite z-score"
endpoint_value = -0.0559

[[record]]
compound = "COCCOC(=O)N1C(=O)[C@@]2(c3cc(C#Cc4ccc(OC)cc4)ccc31)[C@H](C(=O)N1CCCCCCC1)[C@H]1C(=O)O[C@H](c3ccccc3)[C@H](c3ccccc3)N1[C@@H]2c1ccc(OCCO)cc1"
readout_type = "composite z-score"
endpoint_value = 2.85

[[record]]
compound = "COC(=O)[C@@]1(Cc2ccccc2)[C@H]2c3cc(C(=O)N4CCCC4)n(Cc4nc5ccccc5[nH]4)c3C[C@H]2CN1C(=O)c1ccccc1"
readout_type = "composite z-score"
endpoint_value = 1.19

[[record]]
compound = "CCOc1cc(C(O)C2C=CC3C(=O)N(c4ccccc4)C(=O)C3N2Nc2ccccc2)ccc1O (centres undefined)"
readout_type = "composite z-score"
endpoint_value = 0.259

[[record]]
compound = "COC(=O)[C@@]1(Cc2ccc(F)cc2)[C@H]2c3cc(C(=O)N4CCCC4)n(Cc4ccc(C)o4)c3C[C@H]2CN1C(=O)c1ccccc1"
readout_type = "composite z-score"
endpoint_value = 0.285

[[record]]
compound = "CC(CO)N1C(=O)[C@@H]2C3C(=O)OCCC/C=C\\[C@H]3OC23C=CCN(c2ccc4ccccc4c2)C(=O)[C@@H]13 (some centres undefined)"
readout_type = "composite z-score"
endpoint_value = 0.122

[[record]]
compound = "COCCCNC(=O)[C@@]1(Cc2ccccc2N=[N+]=[N-])N=C(c2ccc(OCCCO)cc2)O[C@H]1c1ccccc1N=[N+]=[N-]"
readout_type = "composite z-score"
endpoint_value = 0.622

[[record]]
compound = "COC(=O)c1c(CC[C@@H](CO)NC(=O)N[C@@H](C)Cn2cc(C3(O)CCCCC3)nn2)oc(C(C)=O)c1C(=O)OC"
readout_type = "composite z-score"
endpoint_value = -0.548

[[record]]
compound = "CCOC(=O)[C@H]1C/C=C/C[C@H](C(=O)OCC)C(=O)O[C@H]2[C@@H](OC)O[C@H](CO)[C@@H](OC(=O)Nc3cccc(F)c3)[C@@H]2OC1=O"
readout_type = "composite z-score"
endpoint_value = -0.621

[[record]]
compound = "CCN(CC)c1ccc(N2CC=CC34O[C@@H]5/C=C\\CCC(C)OC(=O)C5[C@H]3C(=O)N(C(CO)C(C)C)[C@@H]4C2=O)cc1 (some centres undefined)"
readout_type = "composite z-score"
endpoint_value = 0.165

[[record]]
compound = "C=CCOC(=O)[C@H]1[C@@H]2C(=O)O[C@@H](c3ccccc3)[C@@H](c3ccccc3)N2[C@@H](c2ccc(OCCOC(=O)[C@H]3C[C@H]4C(=O)N[C@@H](CC(C)C)C(=O)N4[C@H]3c3ccc(O)cc3)cc2)[C@]12C(=O)Nc1ccc(I)cc12"
readout_type = "composite z-score"
endpoint_value = -0.921

[[record]]
compound = "[N-]=[N+]=NCc1ccccc1C[C@]1(C(=O)O)N=C(c2ccc(OCCCO)cc2)O[C@H]1c1ccccc1N=[N+]=[N-]"
readout_type = "composite z-score"
endpoint_value = -0.146

[[record]]
compound = "CN1C(=O)C2C=CC(C(O)c3cc(C(F)(F)F)cc(C(F)(F)F)c3)N(N3CCCCC3)C2C1=O (centres undefined)"
readout_type = "composite z-score"
endpoint_value = 0.104

[[record]]
compound = "CCOC(=O)[C@H]1CC=C2CC1C(=O)N1CCC[C@@H]1[C@@H]2O[Si](C)(C)C(C)(C)C (some centres undefined)"
readout_type = "composite z-score"
endpoint_value = -0.502

[[record]]
compound = "CCCC=C(CCC)[C@@H](NS(=O)(=O)c1cccs1)c1ccc(C(=O)OC)cc1"
readout_type = "composite z-score"
endpoint_value = 0.002

[[record]]
compound = "CCCCCCC#C[Si](O[C@H](c1ccccc1)c1cn([C@H](CO)Cc2ccccc2)nn1)(C(C)C)C(C)C"
readout_type = "composite z-score"
endpoint_value = -0.206

[[record]]
compound = "COCCOC(=O)N1C(=O)[C@@]2(c3cc(C#CC4=CCCCC4)ccc31)[C@H](c1ccc(O)cc1)N1[C@H](c3ccccc3)[C@H](c3ccccc3)OC(=O)[C@H]1[C@@H]2C(N)=O"
readout_type = "composite z-score"
endpoint_value = -0.456

[[record]]
compound = "CC(=O)NCCCC[C@@H]1NC(=O)[C@@H]2C[C@H](C(=O)NCCCCCCNC(=O)CS)[C@H](c3cccc(OCCO)c3)N2C1=O"
readout_type = "composite z-score"
endpoint_value = 0.0659

[[record]]
compound = "COC(=O)[C@@]1(Cc2ccc(F)cc2)[C@H]2c3cc(C(=O)N(C)C)n(Cc4ccc(S(C)(=O)=O)cc4)c3C[C@H]2CN1C(=O)c1ccccc1"
readout_type = "composite z-score"
endpoint_value = 0.244

[[record]]
compound = "COc1cc2c(cc1O)C(C1CC1)N(Cc1cc3c(cc1Br)OCO3)CC2 (centres undefined)"
readout_type = "composite z-score"
endpoint_value = 0.423

[[record]]
compound = "C=C(/C(=C/C[C@@H](OC(C)=O)c1ccc(OCCO)cc1)c1cnc2ccccc2c1)C(C)C"
readout_type = "composite z-score"
endpoint_value = -0.0854

[[record]]
compound = "C=C(C)C1C(=C)CN([C@H](CO)c2ccccc2)C1=O (some centres undefined)"
readout_type = "composite z-score"
endpoint_value = 0.172

[[record]]
compound = "C=CCC(OC(C)=O)[C@@H]1[C@@H](N(Cc2ccc(-c3cccc(C(F)(F)F)c3)o2)C(=O)Cc2ccc(F)cc2)c2cc(OCCCO)ccc2N1C(=O)Cc1ccc(OC)cc1 (some centres undefined)"
readout_type = "composite z-score"
endpoint_value = -0.0361

[[record]]
compound = "C=CCN(Cc1ccccc1)C(=O)C(c1cccs1)N(CCOCCO)C(=O)/C=C\\C(=O)O (centres undefined)"
readout_type = "composite z-score"
endpoint_value = 0.713

[[record]]
compound = "C=C[C@H](COC(C)=O)N(C(=O)OC(C)(C)C)S(=O)(=O)c1ccc(Br)cc1"
readout_type = "composite z-score"
endpoint_value = 0.726

[[record]]
compound = "COCCOC(=O)N1C(=O)[C@@]2(c3cc(C#CC4=CCCCC4)ccc31)[C@H](C(N)=O)[C@H]1C(=O)O[C@H](c3ccccc3)[C@H](c3ccccc3)N1[C@@H]2c1ccc(OCCO)cc1"
readout_type = "composite z-score"
endpoint_value = -0.809

[[record]]
compound = "[N-]=[N+]=Nc1ccccc1C[C@@]1(C(=O)NCCN2CCOCC2)N=C(c2ccc(OCCCO)cc2)O[C@@H]1c1ccccc1"
readout_type = "composite z-score"
endpoint_value = 0.234

[[record]]
compound = "CC(C)(C)C(=O)N[C@@H](c1ccc(Cl)cc1)[C@]1(C)C[C@H]1C1CCCCC1"
readout_type = "composite z-score"
endpoint_value = 1.05

